- Tested on: UACC-62 melanoma
- ASSAY EXPLANATION: NCI-60 one-dose screen, 48 h (100 = growth as untreated, 0 = no growth, -100 = all killed)
- ASSAY CONDITIONS: 10 µM unless noted
The panel holds about 83,000 compounds, 20% with a hit somewhere; the sample as a whole holds those more often. The source made the active and inactive calls. Rule for the calls: active = growth percent below 10; inactive = the rest.
ENDPOINT NAME: growth

Worked examples follow.
CCSCC1CC(O)(c2ccccc2)CC(c2ccc(F)cc2)O1 (stereo not drawn)    29.2% (inactive)
Cn1cc(-c2csc(-c3c[nH]c4ccccc34)n2)c2ccnc(Cl)c21    84.9% (inactive)
Cc1ccc(-n2c3c(c(-c4ccccc4)c2-c2ccccc2)C2=NCCN2C=N3)cc1    75.1% (inactive)
C#CCNC(=O)[C@H](Cc1ccccc1)NC(=O)[C@]12CC[C@@H](C(=C)C)[C@@H]1[C@H]1CC[C@@H]3[C@@]4(C)CCC(=O)C(C)(C)[C@@H]4CC[C@@]3(C)[C@]1(C)CC2    59.5% (inactive)
CC1(C)c2[nH]c3ccccc3c2C[C@]2(C)[C@H]3C(=O)C=C4[C@@H]5C[C@@](C)(C(N)=O)CC[C@]5(C)CC[C@@]4(C)[C@]3(C)CC[C@@H]12    70.6% (inactive)
Cc1cc(C)c(S(=O)(=O)Oc2ccccc2[N+](=O)[O-])c(C)c1    24.5% (inactive)
NS(=O)(=O)c1ccc(CCn2c(SCC(=O)c3ccc(Cl)cc3)nc3ccccc3c2=O)cc1    98.9% (inactive)
COc1cc(OC)cc(C(=O)C[n+]2cccc3cc[nH]c32)c1    89.8% (inactive)

Q: Report growth from UACC-62 melanoma testing of CC1(C)NCCC[C@]2(C)[C@H]3CC[C@@H]4[C@H]5[C@H](C(=O)/C=C/c6ccco6)CC[C@]5(CO)CC[C@@]4(C)[C@]3(C)CC[C@@H]12
A: 87.8% (inactive)

Q: Report growth from UACC-62 melanoma testing of CCCOc1ccc(/C=N/Nc2cc(C)nc3ccc(Cl)cc23)cc1
A: 88.6% (inactive)

---

- Tested on: SW-620 colon
- ASSAY EXPLANATION: NCI-60 one-dose screen, 48 h (100 = growth as untreated, 0 = no growth, -100 = all killed)
- ASSAY CONDITIONS: 10 µM unless noted
The panel holds about 83,000 compounds, 20% with a hit somewhere; the sample as a whole holds those more often.
Entries and their growth values follow.
Numbers only here, please. The scale is %.

CCN(CC)c1ccc(/C=N/NC(=O)CSc2nc3ccccc3c(=O)n2Cc2ccc(S(N)(=O)=O)cc2)c(O)c1    21.4
C=C(C)[C@@H]1CC[C@]2(C(=O)N3CCN(C)CC3)CC[C@]3(C)[C@H](CC[C@@H]4[C@@]5(C)C/C(=C/c6cccnc6)C(=O)C(C)(C)[C@@H]5CC[C@]43C)[C@@H]12    48.1
C=C1C(=O)O[C@H]2[C@H]1CC/C(COC(=O)NCC(C)c1ccc(CC(C)C)cc1)=C\CC[C@@]1(C)O[C@@H]21 (stereo partly specified)    -58.7
COc1cc2nc(-c3ccc(Cl)cc3)cc(OCCCN3CCCCC3)c2cc1OC    40.8
CN(CCN(C)c1ccc(C(=N)N)cc1)c1ccc(C(=N)N)cc1    104

Q: Report growth from SW-620 colon testing of C=C1C(=O)O[C@H]2[C@H]1CC/C(COC(=O)NCc1c[nH]c3ccc(F)cc13)=C\CC[C@@]1(C)O[C@@H]21
A: -72.4

Q: Report growth from SW-620 colon testing of CCCCNC(=O)Oc1ccc(/C(=C(\C)c2ccccc2)c2ccc(OCCN3CCCCC3)cc2)cc1
A: 60.8

Q: Report growth from SW-620 colon testing of Oc1ccc(C(c2ccc(O)cc2)c2ccc(Br)cn2)cc1
A: 102

Q: Report growth from SW-620 colon testing of N/C(=N\C(N)=N\c1nc2ccccc2s1)c1ccnc(Br)c1
A: 13.5

Q: Report growth from SW-620 colon testing of COc1cc2c3c(c4c5ccccc5[nH]c4c2c(OC)c1OC)C(=O)N(CCN1CCOCC1)C3=O
A: 32.4

Q: Report growth from SW-620 colon testing of COc1ccc(/C=C2\Oc3cc(OCCCCCN4CCCCC4)ccc3C2=O)cc1OC
A: -61.3

Q: Report growth from SW-620 colon testing of Cc1ccc(-n2cc(-c3ccccc3)c3c2N=NN2CCN=C32)cc1
A: 92.5

Q: Report growth from SW-620 colon testing of CN1CCN(CCNc2nccc(-c3c(-c4cccc(O)c4)nc4sccn34)n2)S1(=O)=O
A: 65.4

Q: Report growth from SW-620 colon testing of Cn1cc(-c2nc(-c3c[nH]c4c(Cl)nccc34)cs2)c2cc(F)ccc21
A: 102

Q: Report growth from SW-620 colon testing of c1ccc2c(-c3nccs3)c[nH]c2c1
A: 99.1

Q: Report growth from SW-620 colon testing of C#CCNC(=O)[C@H](Cc1ccccc1)NC(=O)[C@]12CC[C@@H](C(=C)C)[C@@H]1[C@H]1CC[C@@H]3[C@@]4(C)CCC(=O)C(C)(C)[C@@H]4CC[C@@]3(C)[C@]1(C)CC2
A: 64.8

Q: Report growth from SW-620 colon testing of CC/C(=C\c1ccc(OC)cc1)C(=O)c1ccc(OC)cc1
A: 94.2

Q: Report growth from SW-620 colon testing of CCOC(=O)c1cc(C(=O)c2cc(OC)cc(OC)c2)n2ccc3ccccc3c12
A: 102

Q: Report growth from SW-620 colon testing of COC1=CC(=O)c2ccccc2C1=O
A: 108

Q: Report growth from SW-620 colon testing of O=C(Nc1ccc(-c2ccc3c(c2)NC(=O)/C3=C\c2ccc[nH]2)cc1)NC1CC1
A: 103

Q: Report growth from SW-620 colon testing of N=C1C(c2nc3ccccc3s2)=C(O)CN1c1cc(Cl)cc(Cl)c1
A: 54.8

Q: Report growth from SW-620 colon testing of Cc1ccc(C(=O)/C(=C\c2ccc([N+](=O)[O-])cc2)S(=O)Cc2ccc(Cl)cc2)cc1 (stereo unspecified)
A: 7.46

Q: Report growth from SW-620 colon testing of COc1ccc(/C=N/NC(=O)c2cnn3c2NC(c2ccccc2)C3)cc1OC (stereo unspecified)
A: 44.4

---

Entries and their growth values follow.
- Tested on: NCI-H23 lung
- ASSAY EXPLANATION: NCI-60 one-dose screen, 48 h (100 = growth as untreated, 0 = no growth, -100 = all killed)
- ASSAY CONDITIONS: 10 µM unless noted
Compounds without any hit were thinned out: in the full panel of roughly 83,000, 20% have a hit. Calls of active or inactive are those of the source. Rule for the calls: active = growth percent below 10; inactive = the rest.

Worked examples follow.
O=C1NN(C(=O)c2ccccc2)C(c2ccc(Cl)c(Cl)c2)=C/C1=C\c1ccc([N+](=O)[O-])cc1    85.3% (inactive)
C[C@H](c1nc2ccc(N)cc2[nH]1)[C@H]1CC[C@H]2[C@@H]3CCC4=CC(=O)CC[C@]4(C)[C@H]3CC[C@]12C    85.8% (inactive)
NC1[C@H](c2c[nH]c3ccccc23)c2c([nH]c3ccccc23)[C@H]1c1c[nH]c2ccccc12 (stereo partly drawn)    85.7% (inactive)
COc1cc(NC(C)CCCNC(=O)CCC(=O)NCCCNCCCCCCCCCCNCCCNC(=O)CCC(=O)NCCCC(C)Nc2cc(OC)cc3cccnc23)c2ncccc2c1 (stereo not drawn)    63.4% [8 µM] (inactive)
CCOC(=O)c1nc2c3ccccc3ccn2c1C(=O)OCC    96.9% (inactive)
c1ccc2c(-c3c[nH]c4ccccc34)c3c(cc2c1)[nH]c1ccccc13    69.9% (inactive)
CCCN1[C@@H]2CC[C@H]1/C(=C\c1ccc(OC)c(OC)c1)C(=O)/C2=C/c1ccc(OC)c(OC)c1    23.8% (inactive)
O=S(=O)(NCCNc1nccc(-c2c(-c3cccc(O)c3)nc3occn23)n1)c1ccc(Cl)cc1    103% (inactive)
CCC(=O)Oc1ccc(/C(=C(\C)c2ccccc2)c2ccc(OCCN3CCCCC3)cc2)cc1    75.1% (inactive)
Cc1ccc(S(=O)(=O)Nn2c3c(cc(-c4nc5ccccc5s4)c2=O)CCCCCC3)cc1    94.8% (inactive)

Q: For the molecule O=S(=O)(NCCNc1nccc(-c2c(-c3cccc(O)c3)nc3occn23)n1)c1ccc(C(F)(F)F)cc1 , give its reported growth.
A: 102% (inactive)

Q: For the molecule CCOC(=O)/C(C#N)=C1/NNC(=Nc2cccnc2)S1 , give its reported growth.
A: 97.7% (inactive)

Q: For the molecule O=C(Cc1ccccc1)NNc1nc(Cl)nc(N2CCN(C(c3ccccc3)c3ccccc3)CC2)n1 , give its reported growth.
A: 83% (inactive)

Q: For the molecule N#Cc1cccc(-c2ccc3c(c2)NC(=O)/C3=C\c2ccc[nH]2)c1 , give its reported growth.
A: 34.2% (inactive)

Q: For the molecule COc1cccc(-c2nc3occn3c2-c2ccnc(NCCCNS(=O)(=O)c3ccc(C(F)(F)F)cc3)n2)c1 , give its reported growth.
A: 99.3% (inactive)

Q: For the molecule CCOC(=O)Oc1c(OC)cc(C(=O)c2ccc(OC)c(OC(=O)CCl)c2OC)cc1OC , give its reported growth.
A: 32.5% (inactive)

Q: For the molecule O=C1c2c(c3c4cccc(F)c4[nH]c3c3ccc4ccccc4c23)C(=O)N1O , give its reported growth.
A: 56.2% (inactive)

Q: For the molecule O=S(=O)(NCCCNc1nccc(-c2c(-c3cccc(F)c3)nc3sccn23)n1)c1cccc2ccccc12 , give its reported growth.
A: 66.2% (inactive)

The values you see were collected from PubChem BioAssay (NCI).
